The reported numbers originate from PubChem BioAssay (NCI).

# System: 786-0 renal
# testSummary: NCI-60 one-dose screen, 48 h (100 = growth as untreated, 0 = no growth, -100 = all killed)
# measurementConditions: 10 µM unless noted
# Procedure: Cells are grown in 96 well plates and exposed to the test compound for 48 hours. Compounds are tested at a single concentration, which is 10^-5 M for most compounds. The reported endpoint is percent growth (GI% or GIPRCNT), where numbers from 0 - 100% represent growth inhibition, and numbers from -100% - 0 represent cell death. For example, a value of 40 represents 60% growth inhibition. A value of 0 means no net growth occurred over the course of the experiment. […]
The panel holds about 83,000 compounds, 20% with a hit somewhere; the sample as a whole holds those more often.
Classify: 1 when growth is strictly less than 50%; 0 when growth is not.

// known answers, use as guide
- compound: "COc1ccc(CN2CCCC(C(=O)c3ccc(C(F)(F)F)cc3)C2)c(O)c1 (stereo unspecified)"
  categoryLabel: 1
- compound: "CN(C)c1ccc(N=Cc2ccc(N3CCOCC3)cc2)cc1"
  categoryLabel: 0
- compound: "CN1CCN(c2nc(Nc3ccc(O)cc3)nc3ccccc23)CC1"
  categoryLabel: 0

Request: Take the compound `COc1ccc(/C=C/C(=O)c2ccc3cc(OC)c(OC)cc3c2)cc1OC` and say whether its growth is less than 50%.
Response: 1

Request: Take the compound `O=C(COc1cc(O)c2c(=O)cc(-c3ccccc3)oc2c1)Nc1ccccc1C(F)(F)F` and say whether its growth is less than 50%.
Response: 1

Request: Take the compound `COc1cc(/C(C#N)=C/c2nc3c(N4CCOCC4)nc(Cl)nc3n2C)cc(OC)c1OC` and say whether its growth is less than 50%.
Response: 1
